Molecular target: CDK7/Cyclin H/MNAT1 (Homo sapiens, UniProt P50613)
Sequence (P51946 whole entry): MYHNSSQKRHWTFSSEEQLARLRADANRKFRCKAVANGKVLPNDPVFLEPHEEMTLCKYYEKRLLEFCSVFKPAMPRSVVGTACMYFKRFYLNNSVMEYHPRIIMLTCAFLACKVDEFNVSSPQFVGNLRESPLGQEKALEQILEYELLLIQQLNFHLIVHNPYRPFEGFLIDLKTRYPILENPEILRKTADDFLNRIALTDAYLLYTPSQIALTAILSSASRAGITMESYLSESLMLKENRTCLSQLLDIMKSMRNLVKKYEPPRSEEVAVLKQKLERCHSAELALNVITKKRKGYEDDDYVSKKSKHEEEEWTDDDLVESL
Sequence (P50613 whole entry): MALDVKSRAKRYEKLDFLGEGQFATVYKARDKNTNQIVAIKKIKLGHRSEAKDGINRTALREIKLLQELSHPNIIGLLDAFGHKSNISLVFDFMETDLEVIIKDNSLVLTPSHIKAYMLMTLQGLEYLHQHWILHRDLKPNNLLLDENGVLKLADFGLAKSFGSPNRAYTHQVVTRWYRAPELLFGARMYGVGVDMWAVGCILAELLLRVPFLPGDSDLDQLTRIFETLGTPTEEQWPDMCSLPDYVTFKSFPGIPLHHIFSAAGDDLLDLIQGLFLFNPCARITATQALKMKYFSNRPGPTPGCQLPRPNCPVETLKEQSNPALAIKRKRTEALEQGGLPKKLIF
Sequence (P51948 whole entry, further chain): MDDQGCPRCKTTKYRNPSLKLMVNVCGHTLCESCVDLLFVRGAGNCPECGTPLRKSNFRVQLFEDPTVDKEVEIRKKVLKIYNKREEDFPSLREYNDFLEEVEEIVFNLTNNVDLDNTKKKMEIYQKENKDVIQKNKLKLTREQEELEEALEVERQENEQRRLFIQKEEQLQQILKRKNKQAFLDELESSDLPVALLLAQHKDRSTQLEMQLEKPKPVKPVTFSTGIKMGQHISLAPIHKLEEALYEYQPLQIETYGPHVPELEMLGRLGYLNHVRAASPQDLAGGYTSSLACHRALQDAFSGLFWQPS
Assay: Inhibition of human His-tagged CDK7/cyclin H/MNAT1 expressed in baculovirus infected insect cells preincubated for 10 mins followed by substrate and ATP addition and measured after 60 mins by ADP-Glo kinase assay
For each entry below, report its pIC50 value.
Convention used: pIC50 is expressed as -log10 of the molar concentration.

Task item: Record request: pIC50 value, item CP(C)(=O)c1cccc2c(-c3nc(N[C@H]4COC5(CCNCC5)C4)nc4ccsc34)c[nH]c12
Reply: 7.05

Task item: Request the reported pIC50 associated with CP(C)(=O)c1cc(F)cc2c(-c3nc(N[C@H]4CCCNC4)nc4ccsc34)c[nH]c12
Reply: 8.06

Task item: Look at this compound and give its reported pIC50. CP(C)(=O)c1cccc2c(-c3nc(N[C@H]4CCCNC4)nc4ccsc34)c[nH]c12
Reply: 8.21

Task item: Request the reported pIC50 associated with CC1(CNc2nc(-c3c[nH]c4c(P(C)(C)=O)cccc34)c3sccc3n2)CNC1
Reply: 7.40

Task item: Fill in: pIC50 of C[C@@H]1C[C@H](Nc2nc(-c3c[nH]c4c(P(C)(C)=O)cccc34)c3sccc3n2)CN1 is ___
Reply: 6.66

Task item: Please look up its pIC50: CCP(=O)(CC)c1cccc2c(-c3nc(N[C@H]4CCCNC4)nc4ccsc34)c[nH]c12
Reply: 8.05

Task item: Form field: reported pIC50 of CP(C)(=O)c1cccc2c(-c3nc(NCC4(F)CCNCC4)nc4ccsc34)c[nH]c12
Reply: 7.06

Task item: Would you mind telling me what pIC50 value was observed for CS(=O)(=O)c1cccc2c(-c3nc(N[C@H]4CCCNC4)nc4ccsc34)c[nH]c12 ?
Reply: 7.99

Task item: Please report the recorded pIC50 for C[C@@H](CN)Nc1nc(-c2c[nH]c3c(P(C)(C)=O)c(C#N)ccc23)c2sccc2n1 .
Reply: 7.02

Task item: Need pIC50, item Brc1cccc2c(-c3nc(N[C@H]4CCCNC4)nc4ccsc34)c[nH]c12
Reply: 8.00

Task item: Quick check: pIC50 of CP(C)(=O)c1c(C#N)ccc2c(-c3nc(NC4CNCC(F)(F)C4)nc4ccsc34)c[nH]c12 (stereo not given) ?
Reply: 7.24

Task item: pIC50 for CP(C)(=O)c1nccc2c(-c3nc(N[C@H]4CCCNC4)nc4ccsc34)c[nH]c12 ?
Reply: 7.96

Task item: What pIC50 value was documented for this compound, c1ccc2c(-c3nc(N[C@H]4CCCNC4)nc4ccsc34)c[nH]c2c1 ?
Reply: 7.24

Task item: Find the recorded pIC50 belonging to CP(C)(=O)c1cccc2c(-c3nc(N[C@H]4CC[C@H](N)C4)nc4ccsc34)c[nH]c12 and report it.
Reply: 7.65

Task item: Any idea what its pIC50 is? The compound is CNC(=O)c1ccc2c(-c3nc(N[C@H]4CCCNC4)nc4ccsc34)c[nH]c2c1P(C)(C)=O
Reply: 7.28

Task item: Recorded pIC50 for CP(C)(=O)c1cc(C(F)(F)F)cc2c(-c3nc(N[C@H]4CCCNC4)nc4ccsc34)c[nH]c12 , please?
Reply: 6.85

Task item: Report pIC50 for CN1CCC[C@H](Nc2nc(-c3c[nH]c4c(P(C)(C)=O)c(C#N)ccc34)c3sccc3n2)C1 please.
Reply: 7.59

Task item: Look up pIC50: CP(C)(=O)c1ccc(F)c2c(-c3nc(N[C@H]4CCCNC4)nc4ccsc34)c[nH]c12
Reply: 8.14

Task item: Request the reported pIC50 associated with CP(C)(=O)c1cc(C#N)cc2c(-c3nc(N[C@H]4CCCNC4)nc4ccsc34)c[nH]c12
Reply: 6.86
